property: melting point

Past entries and their recorded results:
• CCc1c(-c2ccc(OCc3ccccc3)cc2)c2c(C(=O)N(C)C)cc3cccc1n32 = 92 to 95 °C
• O=c1oc(OCCBr)c(Cl)c2ccccc12 = 183 to 185 °C
• O=C(O)CCc1cn(Cc2ccc(OCc3cccc(-c4cnccn4)c3)cc2)cc1-c1ccccc1 = 91 to 92 °C

**Q:** For COCCc1nc2c(N)nc3ccccc3c2n1CCOCCNS(C)(=O)=O , what is its reported melting point?
**A:** 114 to 117 °C

**Q:** For CCOC(=O)C(=CC=C(SC)C(=O)c1ccc(Br)cc1)N(C)C , what is its reported melting point?
**A:** 107 °C

**Q:** For CCCc1nn(-c2ccc(C(F)(F)F)cn2)cc1CCCO , what is its reported melting point?
**A:** 96 to 97 °C

**Q:** For CCOC(=O)c1cc(-c2ccccc2)nc2c([N+](=O)[O-])cccc12 , what is its reported melting point?
**A:** 138 to 140 °C

**Q:** For COC(=O)C1=C(O)CCc2c(OC)cccc21 , what is its reported melting point?
**A:** 55 to 58 °C

**Q:** For Cc1c(C)c2c(c(C)c1N)C(c1ccc(C(C)C)cc1)C1(CCN(C)CC1)O2 (configuration not stated) , what is its reported melting point?
**A:** 123 to 124 °C

**Q:** For C#CCc1ccc2onc3c2c1OCC=N3 , what is its reported melting point?
**A:** 104 to 106 °C

**Q:** For CCN1c2ncccc2C(=O)N(C)c2ccc(OC)nc21 , what is its reported melting point?
**A:** 116 to 118 °C

**Q:** For Cc1ccc(O)c2[nH]c(Cc3ccccc3)nc12 , what is its reported melting point?
**A:** 204 to 205 °C

----------
In this section we review reported melting point values for a set of compounds.

Past entries and their recorded results:
* Cc1ccccc1C(Oc1cc(OCc2cncs2)ccc1C#N)C(=O)O (configuration not stated) | 226 to 227 °C
* CNC(=O)c1[nH]c(C)c2c1CN=C(c1ccccc1F)c1cc(Cl)ccc1-2 | 252 to 255 °C
* CC(=O)OCC1OC(SCCCc2ccccc2)C(OC(C)=O)C(OC(C)=O)C1OC(C)=O (configuration not stated) | 73 to 74 °C
* CC(C)c1cn2ccccc2c1S(=O)(=O)c1ccc(OCCCBr)cc1 | 133 °C
* COC(=O)c1ccc(CNC(=O)c2[nH]c(-c3cccs3)cc2-c2ccc(F)cc2)cn1 | 174 to 175 °C

**Q:** For COc1cccc(Cl)c1C1SC(=O)NC1=O (configuration not stated) , what is its reported melting point?
**A:** 195 to 197 °C

**Q:** For O=C(c1ccc(-c2ccccc2)cc1Cl)N1CCCC(Cc2nnn[nH]2)c2ccccc21 (configuration not stated) , what is its reported melting point?
**A:** 191 to 194 °C

----------
property: melting point

- COc1ccc2c(c1)C(=O)c1ccc(C3=NCCN3)cc1S2(=O)=O: 220 to 224 °C
- CONS(=O)(=O)c1ccc(C(F)(F)F)cc1: 96 to 97 °C
- Cn1c(C(F)(F)F)cc(=O)n(-c2cc(OCSc3ccccc3)c(Cl)cc2F)c1=O: 91 to 94 °C

**Q:** For CC(C)(C)C(=O)Oc1cc(-c2oc3ccccc3c(=O)c2C(=O)N2CCN(c3ccccn3)CC2)cc(OC(=O)C(C)(C)C)c1OC(=O)C(C)(C)C , what is its reported melting point?
**A:** 120 to 125 °C

**Q:** For COc1ccc(/C(=C/C(=O)O)c2cc(C)cc(Cl)c2)cc1 , what is its reported melting point?
**A:** 190 to 192 °C

**Q:** For O=C1N(CC2CCCO2)c2ccccc2C12COc1cc3c(cc12)OCC3 (stereo not given) , what is its reported melting point?
**A:** 162 to 164 °C

----------
In this section we review reported melting point values for a set of molecules.

Past entries and their recorded results:
- Cn1nc(-c2cnc3[nH]cc(C(=O)NCC(C)(C)C)c3n2)c2ccc(F)cc21: 294 to 295 °C
- Cc1ccc(-c2[nH]nc3c2C(=O)c2c(NC(N)=O)cccc2-3)s1: > 280 °C
- CC(=O)Nc1nc2c(Oc3cc(-c4ccc5c(c4)OC(C)(C)C5)ncn3)cccc2s1: 224 to 225 °C
- CCc1cnc(N2CCC(c3ccc4oc(-c5ccc(S(C)(=O)=O)cc5F)nc4c3)CC2)nc1: 190 to 194 °C
- CCc1nc2c(C)cc(C)nc2n1Cc1ccc2c(c1)CCc1ccccc1N2Cc1nnn[nH]1: 177 to 179 °C

Consider now this further molecule.
**Q:** For O=C(c1ccccc1)c1cc(Cl)cc2c1S(=O)CC2C(=O)O (stereo unspecified) , what is its reported melting point?
**A:** 172 to 174 °C

----------
In this section we review reported melting point values for a set of molecules.

• O=C(O)Cc1ccc(S(=O)(=O)c2ccc(Cl)cc2)cc1 = 153 to 157 °C
• CCCCCC(C(=O)O)c1cccc(Oc2ccccc2C)c1O (stereo not given) = 113 to 114 °C
• Cc1nc(Cl)c2c(c1O)COC2c1ccccc1 (stereo not given) = 230 °C

**Q:** For CCOC(=O)C1=C(C)NC(C)=C(C(=O)OCC)C1c1ccccc1/C=C/C(=O)OC1CCCCCC1 , what is its reported melting point?
**A:** 192 to 194 °C

**Q:** For C=C1C2CCC(=O)C23CCC(C3)C1(C)C (stereo not given) , what is its reported melting point?
**A:** 77 to 79 °C

----------
In this section we review reported melting point values for a set of compounds.

Past entries and their recorded results:
* C[C@@H]1CNC(=O)c2cc3ccc(C(F)(F)F)cc3n21 | 201 to 204 °C
* CNc1nc(Nc2ccc(OCCNC(=O)OC(C)(C)C)cc2)ncc1[N+](=O)[O-] | 205 to 207 °C

**Q:** For O=C1C(=c2[nH]c(=c3[nH]c(=C4C(=O)N(c5ccccc5)C(=O)N(c5ccccc5)C4=O)c4ccccc34)c3ccccc23)C(=O)N(c2ccccc2)C(=O)N1c1ccccc1 , what is its reported melting point?
**A:** > 300 °C

**Q:** For Cc1cc2c(c(C)c1Br)C(c1ccc(C(C)C)cc1)CO2 (stereo not drawn) , what is its reported melting point?
**A:** 90 to 91 °C

**Q:** For Clc1cc(Cl)c2oc(Cl)nc2c1 , what is its reported melting point?
**A:** 140 to 142 °C

**Q:** For N#CC(C#N)=C1N(CCCN2CCC(F)(F)C2)CCN1CCCN1CCC(F)(F)C1 , what is its reported melting point?
**A:** 122 to 124 °C

**Q:** For COc1cccc(-c2cc(Cl)cc3c2OC(C(F)(F)F)C(C(=O)O)=C3)c1 (stereo not drawn) , what is its reported melting point?
**A:** 173 to 177 °C

**Q:** For O=C1CC(c2ccccc2)NC(=O)C1C(=O)c1ccccc1[N+](=O)[O-] (stereo not drawn) , what is its reported melting point?
**A:** 146 to 150 °C

**Q:** For O=C(N[C@@H](CO)c1nc2cc(Br)ccc2[nH]1)c1ccc(C(=O)N2CCCC2)c(Br)c1 , what is its reported melting point?
**A:** 114 to 116 °C

**Q:** For CCn1cc(C(=O)O)c(=O)c2cc(F)c(N3CCNC(c4cccs4)C3)cc21 (stereo not drawn) , what is its reported melting point?
**A:** 232 to 234 °C

**Q:** For CCOC(=O)c1c(-c2ccc(F)cc2)c2ccncc2c(=O)n1C , what is its reported melting point?
**A:** 158 to 160 °C

**Q:** For CC(=O)CC(=O)Nc1cccc(OC(=O)NC2CCCCC2)c1 , what is its reported melting point?
**A:** 159 °C

**Q:** For O=C(O)CSc1ccc(/C=C/C(=O)NCc2cccnc2)cc1 , what is its reported melting point?
**A:** 160 to 161 °C

----------
property: melting point

• CCOC(=O)CCCN=c1sc2ccccc2s1 = 35 to 36 °C
• c1ccc2c(c1)NCc1cccn1-2 = 108 to 110 °C
• Cc1ccc(S(=O)(=O)OCCc2c(C)nc3cc(C)ccn3c2=O)cc1 = 128 °C
• c1ccc(-c2cn3cnnc3cn2)cc1 = 231 to 233 °C
• Cc1cccc(Nc2ccc(-c3ccccc3)cc2)c1 = 95 °C

**Q:** For CNC(=N)Nc1c(Cl)cccc1Cl , what is its reported melting point?
**A:** 140 °C

**Q:** For CCOCn1c(C(=O)c2ccccc2)c(CC)c(=O)[nH]c1=O , what is its reported melting point?
**A:** 133 to 134 °C

**Q:** For CCCCCCCCCCCCCCOc1ccc(C(=O)O)s1 , what is its reported melting point?
**A:** 95 to 96 °C
